measurement-target: RET kinase (c-RET-GFRα2) (Homo sapiens, UniProt P07949)
Sequence (P07949 29-1114): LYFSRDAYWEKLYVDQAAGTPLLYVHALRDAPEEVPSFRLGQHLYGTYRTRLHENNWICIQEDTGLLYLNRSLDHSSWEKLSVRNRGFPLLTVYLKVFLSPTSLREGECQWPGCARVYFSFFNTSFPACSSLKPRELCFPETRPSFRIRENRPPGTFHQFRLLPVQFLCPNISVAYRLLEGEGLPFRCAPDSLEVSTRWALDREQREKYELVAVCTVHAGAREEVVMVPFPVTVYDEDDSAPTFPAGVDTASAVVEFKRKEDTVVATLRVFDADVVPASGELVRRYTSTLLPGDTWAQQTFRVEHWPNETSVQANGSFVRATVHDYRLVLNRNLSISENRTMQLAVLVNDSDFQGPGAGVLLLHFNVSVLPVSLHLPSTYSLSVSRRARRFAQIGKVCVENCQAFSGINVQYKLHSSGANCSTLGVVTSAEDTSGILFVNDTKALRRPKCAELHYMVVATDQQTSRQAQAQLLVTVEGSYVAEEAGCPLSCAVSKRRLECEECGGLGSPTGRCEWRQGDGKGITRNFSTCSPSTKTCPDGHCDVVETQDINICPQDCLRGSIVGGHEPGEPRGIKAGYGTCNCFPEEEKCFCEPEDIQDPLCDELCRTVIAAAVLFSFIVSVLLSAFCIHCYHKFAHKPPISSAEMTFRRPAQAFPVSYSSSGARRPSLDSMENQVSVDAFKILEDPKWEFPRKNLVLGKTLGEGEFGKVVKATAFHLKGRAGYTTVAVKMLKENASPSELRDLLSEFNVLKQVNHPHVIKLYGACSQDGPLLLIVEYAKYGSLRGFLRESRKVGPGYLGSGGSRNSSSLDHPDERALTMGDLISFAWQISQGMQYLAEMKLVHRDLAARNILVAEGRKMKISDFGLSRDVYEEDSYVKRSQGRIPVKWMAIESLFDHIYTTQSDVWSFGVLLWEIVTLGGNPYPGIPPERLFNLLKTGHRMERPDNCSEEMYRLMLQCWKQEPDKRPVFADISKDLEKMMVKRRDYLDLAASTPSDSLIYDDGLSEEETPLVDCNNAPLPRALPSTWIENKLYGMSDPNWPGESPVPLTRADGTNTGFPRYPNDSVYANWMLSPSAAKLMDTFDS
test-details: PathHunter express c-RET-GFRα2 functional live-cell assay (neurturin stimulated)
Assay type: cell-based
measurement-conditions: irradiated (365 nm, 15 min)
reported-endpoint: IC50 (µM)
Numeric answer only, unit µM assumed.

Give IC50 for this entry on RET kinase (c-RET-GFRα2) (Homo sapiens, UniProt P07949): COc1cc(COC(=O)Nc2ncnc3c2c(C#Cc2ccccc2)nn3C(C)C)c([N+](=O)[O-])cc1OCC(=O)O
8.7

---

measurement-target: RET kinase (c-RET-GFRα2) (Homo sapiens)
test-details: PathHunter express c-RET-GFRα2 functional live-cell assay (neurturin stimulated)
Type: cell-based
measurement-conditions: free inhibitor, no irradiation; 3 h preincubation 37 °C
reported-endpoint: IC50 (nM)
# value in nM; strip the unit string

Query IC50 for CC(C)n1nc(C#Cc2ccccc2)c2c(N)ncnc21
470

---

measurement-target: Human recombinant RET (Homo sapiens)
Construct: purchased Promega; host or cells: Sf9 insect cells
test-details: In vitro (cell-free) RET kinase incubation, luminescent ADP detection
Assay type: biochemical
measurement-conditions: non-irradiated (kept in the dark); read-out: IC50, RET-induced ATP turnover
reported-endpoint: pIC50
Conceptually, pIC50 converts a concentration in mol/L into minus its log10.

Give pIC50 for this entry on Human recombinant RET (Homo sapiens): COc1cc(COC(=O)Nc2ncnc3c2c(C#Cc2ccccc2)nn3C(C)C)c([N+](=O)[O-])cc1OCC(=O)O
5.17

---

test-details: Solubility in aqueous media / buffer
Type: physicochemical
measurement-conditions: kinetic from dmso stock; aqueous buffer, 1 vol% DMSO
reported-endpoint: solubility

Consider the compound COc1cc(COC(=O)Nc2ncnc3c2c(C#Cc2ccccc2)nn3C(C)C)c([N+](=O)[O-])cc1OCC(=O)O and give its recorded solubility.
≤ 100 µM

---

measurement-target: Human recombinant RET (Homo sapiens, UniProt P07949)
Construct: purchased Promega; host or cells: Sf9 insect cells
Sequence (P07949 29-1114): as above
test-details: In vitro (cell-free) RET kinase incubation, luminescent ADP detection
Assay type: biochemical
measurement-conditions: free inhibitor, no irradiation; 10 μM ATP, 30 min room temperature; read-out: IC50, RET-induced ATP turnover
reported-endpoint: pIC50
Note on units: pIC50 is unitless, being -log10 of a concentration expressed in mol/L.

Dear colleague, please send me the reported pIC50 for CC(C)n1nc(C#Cc2ccccc2)c2c(N)ncnc21 [compound 1] when you can.
7.14
